Data credit: ChEMBL document CHEMBL5724914

# condition_set: human gut metagenome, 24 h, 2 µM; note: call rule not given here
measurement_name: Bacterial Biotransformation

A selection of reference data follows.
CN(CCOc1ccc(CC2SC(=O)NC2=O)cc1)c1ccccn1.O=C(O)/C=C\C(=O)O (stereo not drawn) [ROSIGLITAZONE MALEATE] : Compound NOT metabolized
OCCN(CCO)c1nc(N2CCCCC2)c2nc(N(CCO)CCO)nc(N3CCCCC3)c2n1 : Compound metabolized
CNNCc1ccc(C(=O)NC(C)C)cc1 : Compound NOT metabolized
C#C[C@]1(OC(C)=O)CC[C@H]2[C@@H]3CCC4=CC(=O)CC[C@@H]4[C@H]3CC[C@@]21C [NORETHINDRONE ACETATE] : Compound metabolized
CCOc1cc(CC(=O)N[C@@H](CC(C)C)c2ccccc2N2CCCCC2)ccc1C(=O)O [REPAGLINIDE] : Compound metabolized
CC(=O)O[C@H]1C(=O)[C@@]2(C)[C@H]([C@H](OC(=O)c3ccccc3)[C@]3(O)C[C@H](OC(=O)[C@H](O)[C@@H](NC(=O)c4ccccc4)c4ccccc4)C(C)=C1C3(C)C)[C@]1(OC(C)=O)CO[C@@H]1C[C@@H]2O : Compound NOT metabolized
COc1ccc(C(CN(C)C)C2(O)CCCCC2)cc1 (stereo not drawn) : Compound NOT metabolized
CC#CCn1c(N2CCC[C@@H](N)C2)nc2c1c(=O)n(Cc1nc(C)c3ccccc3n1)c(=O)n2C : Compound NOT metabolized

Ask: Tell me the measured Bacterial Biotransformation of CCOC(=O)C1=C(C)NC(C)=C(C(=O)OC)C1c1cccc([N+](=O)[O-])c1 (stereo not drawn) , please.
Reply: Compound metabolized

Ask: How about this molecule: COc1cc(C(=O)NCc2ccc(OCCN(C)C)cc2)cc(OC)c1OC [TRIMETHOBENZAMIDE]
Reply: Compound NOT metabolized

Ask: How about this molecule: CN(C)CCC=C1c2ccccc2COc2ccccc21 [DOXEPIN]
Reply: Compound metabolized

Ask: Do the same for CC(CCc1ccccc1)NCC(O)c1ccc(O)c(C(N)=O)c1 (stereo not drawn) please
Reply: Compound NOT metabolized

Ask: What do we get for CN1CCC(OC(c2ccccc2)c2ccccc2)CC1 ?
Reply: Compound metabolized

Ask: Also O=C(O)c1cc(/N=N/c2ccc(S(=O)(=O)Nc3ccccn3)cc2)ccc1O , if possible.
Reply: Compound metabolized

Ask: And COc1ccc2cc([C@H](C)C(=O)O)ccc2c1 ?
Reply: Compound metabolized

Ask: Now consider CC(C)(C)NC[C@H](O)COc1nsnc1N1CCOCC1.O=C(O)/C=C\C(=O)O [TIMOLOL MALEATE] .
Reply: Compound NOT metabolized

Ask: Further, for COC1=C(OC)C(=O)C(CCCCCCCCCCO)=C(C)C1=O ?
Reply: Compound metabolized

Ask: Also OC(c1cc(C(F)(F)F)nc2c(C(F)(F)F)cccc12)C1CCCCN1 (stereo not drawn) ?
Reply: Compound NOT metabolized

###

# condition_set: human gut metagenome, 24 h, 2 µM
measurement_name: Bacterial Biotransformation

Worked cases, Bacterial Biotransformation given:
CN1CCC[C@@H]1CCO[C@](C)(c1ccccc1)c1ccc(Cl)cc1.O=C(O)/C=C/C(=O)O [CLEMASTINE FUMARATE] : Compound NOT metabolized
COc1cc2nc(N3CCN(C(=O)C4COc5ccccc5O4)CC3)nc(N)c2cc1OC.CS(=O)(=O)O (stereo unspecified) [DOXAZOSIN MESYLATE] : Compound metabolized
O=C1CN2Cc3c(ccc(Cl)c3Cl)N=C2N1 [ANAGRELIDE] : Compound NOT metabolized
C=C[C@H]1CN2CC[C@H]1C[C@H]2[C@H](O)c1ccnc2ccc(OC)cc12.C=C[C@H]1CN2CC[C@H]1C[C@H]2[C@H](O)c1ccnc2ccc(OC)cc12.O.O.O=S(=O)(O)O [QUININE SULFATE] : Compound NOT metabolized
Cc1ccccc1C(OCCN(C)C)c1ccccc1.O=C(O)CC(O)(CC(=O)O)C(=O)O (stereo unspecified) [ORPHENADRINE CITRATE] : Compound NOT metabolized

With those in mind, consider the next molecule.
Ask: Which Bacterial Biotransformation is listed for COc1ccc2cc([C@H](C)C(=O)O)ccc2c1 [NAPROXEN] ?
Reply: Compound NOT metabolized
